Molecular target: Calmodulin-1 (Homo sapiens) (UniProt P0DP23)
Test: CALM1 binders on microarrays, EGTA buffer, profiling panel, biochemical, small-molecule microarray, Cy5-labelled CALM1 (AID 1111);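 further: labelled calmodulin applied in Tris saline Tween buffer holding calcium plus EGTA and DTT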
Conditions: Cy5-CALM1 binding fluorescence, higher = more signal
For each entry below, report its composite z-score value.
I only need the number, thanks.

Please give the measured composite z-score for this molecule: `CC/C=C/C(=O)N(C[C@@H]1CCCO1)[C@@H]1CC(C(=O)NCCO)=C[C@H](Oc2c(I)cc(CO)cc2OC)[C@H]1O` -0.33

Could you share which composite z-score value was measured for `COCCCNC(=O)[C@@]1(Sc2ccc(C)cc2)CC(=O)N(Cc2cc(C(F)(F)F)cc(C(F)(F)F)c2)[C@@H]1c1ccc(CO)cc1I` ? -0.0999

Need composite z-score of O=C1OCCC/C=C\[C@H]2OC34C=CCN(CCN5CCOCC5)C(=O)[C@H]3N(CCCCCO)C(=O)[C@@H]4C12 (stereo partly drawn) , thanks. -0.725

Entry under review: `CCCC[C@@H]1C[C@H]1[C@@H](NC(=O)c1ccccc1)c1ccccc1C(F)(F)F` . Reported composite z-score? 1.04

What does the record list as composite z-score for `CO[C@H]1COC(=O)CC=C[C@H](C)COC(=O)[C@@H](OCc2ccccc2)C=C[C@@H]1C` ? -1.51

Form field: reported composite z-score of `C=CCc1cccc([C@H]2N[C@H](C(=O)O)CC[C@@H]2C)c1` -0.962

composite z-score for `CO[C@H]1COC(=O)[C@@H](Cc2ccccc2)NC(=O)[C@@H](C)COC(=O)CC=C[C@@H]1C` ? -2.36

Item under review: `C=C(COC)/C(=C/C[C@@H](OC(=O)c1ccncc1)c1ccc(OCCO)cc1)c1cc(C(=O)OC)ccc1OC` . Reported composite z-score? 0.947

###

Experiment: yeast growth modulation, basal conditions, primary screen, YJM789 clinical isolate, OD600, 24 h (AID 1089);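 further: growth of clinical yeast isolate S. cerevisiae YJM 789 seeded 1000 cells per well; test concentration not given here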
Details: S. cerevisiae YJM789 growth, higher = more signal, called active from +8 up or from −8 down
Respond with Met for z-score values of 0.4 and above, Not met for values below.

Please check the record `CCN1C(C)=C(C(=O)OC)[C@@H](c2ccccc2)N2C(=O)[C@@]3(C(=O)OC)O[C@@]12[C@@H]1C(=O)N(c2ccccc2)C(=O)[C@@H]13` and state if its z-score is at or above 0.4. Not met

Exam item: decide whether the reported z-score for `CO[C@@H]1COC(=O)[C@H](C)NC(=O)CC=C[C@@H](C)[C@H](NS(=O)(=O)c2ccc(C)cc2)COC(=O)CC=C[C@@H]1C` is at least 0.4. Met

Is the recorded value of z-score equal to or greater than 0.4 for this compound? `C=C(CCCC)C(=O)CC[C@@H](OC(C)=O)c1ccccc1OCCO` Not met

Does `CO[C@H]1O[C@H](CO)[C@@H](OC(=O)Nc2ccc(Oc3ccccc3)cc2)[C@H](OC(=O)Nc2ccccc2-c2ccccc2)[C@H]1OC(=O)Nc1ccccc1-c1ccccc1` have a reported z-score of at least 0.4? Met

Decide: is the reported value of z-score for `Cc1ccc(S[C@]2(C(=O)NCCCN(C)C)CC(=O)N(C3CCCCC3)[C@@H]2c2ccc(CO)cc2I)cc1` equal to or greater than 0.4? Met

I'd appreciate it if you could say whether `COc1ccc([Si](C)(C)[C@H]2[C@H](CC(=O)N3Cc4ccccc4C[C@H]3CO)O[C@@]3(C(=O)N(Cc4cccc(N5CCOC5=O)c4)c4ccccc43)[C@@H]2C)cc1` has z-score at least equal to 0.4. Not met

Assess whether reported z-score for `C[C@@H]1CC[C@H]2C(=O)N3CCC[C@H]3C(=O)N2[C@H]1c1ccc(Br)cc1` sits at 0.4 or higher. Not met

Does `CCN1C(C)=C(C(=O)OC)[C@@H](c2ccccc2)N2C(=O)[C@](O)(C(=O)OC)[C@@H](c3ccccc3)C(C(=O)c3ccccc3)=C12` have a reported z-score of at least 0.4? Not met

Dear colleague, could you confirm whether `Cc1ccc(N2C(=O)c3ccccc3[C@](C)(C(=O)NCC(C)C)[C@@H]2c2ccc(CO)cc2)nc1` has z-score at or above 0.4? Met

# check: z-score of `CC(C)=C1C(=O)C(c2ccccc2)=C2CN3C(=O)N(CCc4ccccc4)C(=O)[C@]3(Cc3ccccc3)[C@H]21` is greater than or equal to 0.4 Met

Could you tell me if the measured z-score of `C=CC[C@]1(C(=O)O)N=C(c2ccc(OCCCO)cc2)O[C@H]1c1ccccc1N=[N+]=[N-]` reaches 0.4 or more? Met

Please tell me: is the compound `CC(=O)NCCCC[C@@H]1NC(=O)[C@@H]2C[C@H](C(=O)NCc3ccc(F)cc3)[C@H](c3cccc(OCCO)c3)N2C1=O` at or over 0.4 in terms of z-score? Met

API: above_or_equal(metric=z-score, cutoff=0.4) for item `C=C[C@H](OC)[C@@H](OC(=O)Nc1ccc(SC)cc1)c1ccc(O)c(F)c1` Not met

Dear colleague, could you confirm whether `COC(=O)C1=C(C)N(Cc2ccccc2)c2c(C(=O)OC)c(C(=O)OC)c(C(=O)OC)c(=O)n2[C@@H]1c1ccccc1` has z-score at or above 0.4? Not met

Hi, just wondering whether `COC(=O)[C@@]1(Cc2ccccc2)[C@H]2c3cc(C(=O)N4CCCC4)n(CCN4CNCC4=O)c3C[C@H]2CN1C(=O)c1ccccc1` shows z-score of 0.4 or higher. Not met

Quick check, z-score >= 0.4? `O=C1O[C@@H](c2ccccc2)[C@@H](c2ccccc2)N2[C@@H](c3ccc(OCCO)cc3)[C@]3(C(=O)Nc4ccc(C#CCCO)cc43)[C@@H](C(=O)N3CCN(c4ncccn4)CC3)[C@H]12` Met

Is z-score at least 0.4? Consider `C=CCNC(=O)[C@H]1[C@@H]2C(=O)O[C@@H](c3ccccc3)[C@@H](c3ccccc3)N2[C@@H](c2ccccc2OCCO)[C@]12C(=O)N(C(=O)OCCOC)c1ccc(C#CCNC(N)=O)cc12` Met

Item `COCCOC(=O)N1C(=O)[C@@]2(c3cc(C#CCNC(N)=O)ccc31)[C@H](C(=O)N1CCCCCCC1)[C@H]1C(=O)O[C@H](c3ccccc3)[C@H](c3ccccc3)N1[C@@H]2c1ccccc1OCCO` with z-score of 0.4 or above? Met

Hello, I need to know if `Cc1ccc(S[C@]2(C(=O)NCCCN(C)C)CC(=O)N(Cc3ccccc3)[C@@H]2c2ccc(CO)cc2I)cc1` has measured z-score not below 0.4. Thanks! Not met

Answer whether z-score of `Cc1ccc(S(=O)(=O)c2cc3oc2CC[C@@H](CO)NC(=O)N(C)Cc2cn(nn2)C[C@H](Cc2ccccc2)NC3=O)cc1` is greater than or equal to 0.4. Not met

Given `CCCNC(=O)[C@@]1(Sc2ccc(C)cc2)CC(=O)N(Cc2ccccc2Cl)[C@@H]1c1ccc(CO)cc1` , state whether its z-score is at least 0.4. Not met

For this compound, is measured z-score 0.4 or higher? `CO[C@H]1COC(=O)CC=C[C@H](C)[C@@H](OC)COC(=O)CC=C[C@@H]1C` Not met

Is the recorded value of z-score equal to or greater than 0.4 for this compound? `O=C(N1CCCCC1)[C@@]1(CCS(=O)(=O)c2ccccc2)N=C(c2ccc(OCCCO)cc2)O[C@H]1c1ccccc1` Not met

// inclusive: z-score at least 0.4? input: `CO[C@H]1COC(=O)CC=C[C@H](C)[C@@H](OC)COC(=O)[C@H](Cc2ccccc2)NC(=O)CC=C[C@@H]1C` Not met

Please check the record `CCOC(=O)C1=CC[C@@H](c2ccc(-c3ccc(OCc4ccccc4)cc3)c(OC)c2)N(S(=O)(=O)c2ccc(C)cc2)[C@H]1c1ccccc1` and state if its z-score is at or above 0.4. Not met

Please tell me: is the compound `O=C(CS)NCCCCCCNC(=O)[C@@H]1C[C@@H]2C(=O)N[C@@H](Cc3ccccc3)C(=O)N2[C@@H]1c1ccc(O)cc1` at or over 0.4 in terms of z-score? Not met

Decide: is the reported value of z-score for `CCOC(=O)C[C@H]1[C@H](OC(=O)c2ccccc2-c2ccccc2)[C@@H](NC(=O)c2ccc(-c3ccccc3)cc2)c2cc(OCCCO)ccc2N1C(=O)Cc1ccc(OC)cc1` equal to or greater than 0.4? Not met

Does `O=C1c2ccccc2[C@@]2(Cc3ccccc3N(CC(F)(F)F)C2=O)[C@H](c2ccc(CO)cc2)N1C1CCCCC1` have a reported z-score of at least 0.4? Not met
